Cited source for all entries: patent EP4562003B1

# pIC50 values compiled below
- system-name: human GPR17 short isoform (Homo sapiens, UniProt Q13304)
- Sequence (Q13304 29-367): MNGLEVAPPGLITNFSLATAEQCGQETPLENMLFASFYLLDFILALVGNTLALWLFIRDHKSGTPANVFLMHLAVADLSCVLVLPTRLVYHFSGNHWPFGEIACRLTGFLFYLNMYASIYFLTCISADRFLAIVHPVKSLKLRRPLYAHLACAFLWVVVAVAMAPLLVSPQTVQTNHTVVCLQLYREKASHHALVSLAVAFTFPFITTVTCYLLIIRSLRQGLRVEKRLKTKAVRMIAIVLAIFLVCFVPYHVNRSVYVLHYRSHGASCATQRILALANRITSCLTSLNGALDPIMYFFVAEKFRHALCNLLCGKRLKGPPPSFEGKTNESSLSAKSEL
- measurement-notes: GPR17 cAMP assay (TR-FRET cAMP quantification, antagonist mode)
- condition-info: CHO-K1 cells stably expressing human GPR17 short isoform; EC80 of agonist MDL29,951; forskolin 15µM; IBMX 0.5mM; 30 minutes at room temperature; read-out: hGPR17 cAMP IC50
Note: pIC50 values are expressed as the negative base-10 logarithm of concentration in M.

Sample "COc1nc(NS(=O)(=O)c2c[nH]c3c(-c4cncnc4)c(Cl)ccc23)nc(OC)c1OCC(F)F" — what was its pIC50?
7.38

Please answer likewise for "COc1nc(NS(=O)(=O)c2c[nH]c3c(-c4ncccn4)c(F)ccc23)nc(OC)c1OC(F)F"
6.22

And for "COc1nc(NS(=O)(=O)c2c[nH]c3c(-c4cnoc4)c(Cl)ccc23)nc(OC)c1OCC(F)F" ?
7.20

Now the compound "COc1nc(NS(=O)(=O)c2c[nH]c3c(-c4nccn4C)cccc23)nc(OC)c1CC(F)F"
7.59

Then what about the compound "COc1nc(NS(=O)(=O)c2c[nH]c3c(-c4cnccn4)c(Br)ccc23)nc(OC)c1CC(F)F" ?
7.77

Then what about the compound "COc1nc(NS(=O)(=O)c2c[nH]c3c(-c4ncccc4C)c(Cl)ccc23)nc(OC)c1OC(F)F" ?
7.27

Likewise for "COc1nc(NS(=O)(=O)c2c[nH]c3c(-c4cnn(C)c4)c(Cl)ccc23)nc(OC)c1CC(F)F" ?
7.26
